Tested on: HL-60(TB) leukemia
METHOD_DESCRIPTION: NCI-60 one-dose screen, 48 h (100 = growth as untreated, 0 = no growth, -100 = all killed)
ASSAY_SETUP: 10 µM unless noted
The panel holds about 83,000 compounds, 20% with a hit somewhere; the sample as a whole holds those more often. Active and inactive are the calls of the source. How the source made its calls: active means growth percent below 10; inactive means the rest.
# growth per record follows

Illustrative cases are given below, each with its answer.
# COMPOUND, TARGET_ENTITY, growth
rows = [
    ("CC1COCC(C)N1C1=C(Cl)C(=O)c2ccccc2C1=O (centres undefined)", "HL-60(TB) leukemia", "-19.5% (active)"),
    ("COc1cc2cn3c4ccc(O)cc4nc(N)c3c2cc1OC", "HL-60(TB) leukemia", "24.5% (inactive)"),
    ("CC(C)(C)c1nn(-c2ccccc2)c2c1C(=O)CSC(c1ccc3c(c1)OCO3)N2 (centres undefined)", "HL-60(TB) leukemia", "89.5% (inactive)"),
    ("Cc1ccc(C(=O)Nc2ccc(CN3CCN(C)CC3)c(C(F)(F)F)c2)cc1C#Cc1cncc2ncccc12", "HL-60(TB) leukemia", "-65.1% (active)"),
    ("C/C(=C(/c1ccccc1)c1ccc(OCC(O)CN2CCOCC2)cc1)c1ccccc1 (centres undefined)", "HL-60(TB) leukemia", "60.7% (inactive)"),
    ("O=C1N=c2ccccc2=C1c1sc(=S)n(C2CC(=O)N(c3ccc(Cl)cc3)C2=O)c1O (centres undefined)", "HL-60(TB) leukemia", "101% (inactive)"),
]

Hello, please tell me recorded growth for this one: CCCCCCCCNC(C)C(O)c1ccc(SC(C)C)cc1 (centres undefined)
-70.1% (active)

====

# growth per record follows
Test system: HL-60(TB) leukemia
METHOD_DESCRIPTION: NCI-60 one-dose screen, 48 h (100 = growth as untreated, 0 = no growth, -100 = all killed)
ASSAY_SETUP: 10 µM unless noted
This is part of a sample that, as a whole, favours compounds with a hit. Of some 83,000 tested, about 20% had one in any assay.
# unit: % | format: bare number

Illustrative cases are given below, each with its answer.
# COMPOUND, QUANTITY_UNIT, growth
data = [
    ("O=C(NNC(=O)c1ccc(NC(=O)c2ccccn2)cc1)Nc1ccc2ccccc2c1", "%", 105),
    ("O=C(CCN1CCCC1)Nc1ccc2c(NCCCc3ccccc3)c3ccccc3nc2c1", "%", -55.6),
    ("COC1/C=C/OC2(C)Oc3c(C)c(O)c4c(O)c(c(/C=N/N(c5ccccc5)c5ccccc5)c(O)c4c3C2=O)NC(=O)C(C)=C/C=C/C(C)C(O)C(C)C(O)C(C)C(OC(C)=O)C1C (centres undefined)", "%", 53.1),
]

Provide measured growth on HL-60(TB) leukemia for "O=C1/C(=C/c2ccc([N+](=O)[O-])s2)Oc2cc(Cl)ccc21" please.
-11.7

Provide measured growth on HL-60(TB) leukemia for COc1ccc(C(c2cc(OC)c(OC)c(OC)c2)n2ccnc2)cc1O (centres undefined) please.
-35.9

Provide measured growth on HL-60(TB) leukemia for "C[C@]12CC[C@H](O)CC1=CC[C@@H]1[C@@H]2CC[C@]2(C)C(c3cccnc3)=CC[C@@H]12" please.
-25
